Sourced from ChEMBL document CHEMBL2321663

- assayInfo: Inhibition of theophylline-induced melanogenesis in mouse B16-4A5 cells at 10 uM after 72 hrs by spectrophotometric analysis relative to control
- Assay type: functional
- runParameters: B16-4A5, 72 h
measuredMetric: inhibition at 10 µM (%)
# unit: % | format: bare number

Using the record for COc1ccc2c(c1)[nH]c1c3c(c(C)cc12)O[C@](C)(CCC=C(C)C)C=C3 , state its measured inhibition at 10 µM.
40.8

Using the record for Cc1cc2c3ccc(O)cc3n3c2c2c1O[C@@]1(C)CC[C@H]([C@H]2C1)C3(C)C (relative stereo) , state its measured inhibition at 10 µM.
66

Using the record for CC(C)=CCC/C(C)=C/Cc1c(O)ccc2[nH]c3ccc(C)cc3c12 , state its measured inhibition at 10 µM.
55.9

Using the record for c1ccc2c(c1)[nH]c1ccccc12 , state its measured inhibition at 10 µM.
36.8

Using the record for COc1cccc2c1[nH]c1c3c(c(C)cc12)OC(C)(CCC=C(C)C)C=C3 (stereo not given) , state its measured inhibition at 10 µM.
71.8

###

- assayInfo: Cytotoxicity against mouse theophylline-induced B16-4A5 cells assessed as cell viability at 10 uM after 72 hrs by WST8 assay relative to control
- Format: cell-based
- runParameters: read-out: Activity
Threshold 90%: viability at 72 h, 10 µM strictly smaller gives 1 (yes), otherwise 0 (no).

Determine if Cc1cc2c3ccc(O)cc3n3c2c2c1O[C@@]1(C)CC[C@H]([C@H]2C1)C3(C)C (relative stereo) shows viability at 72 h, 10 µM strictly lower than 90%.
1 (yes)

Determine if c1ccc2c(c1)[nH]c1ccccc12 shows viability at 72 h, 10 µM strictly lower than 90%.
0 (no)

Determine if CC(C)=CCC/C(C)=C/Cc1c(O)ccc2[nH]c3ccc(C)cc3c12 shows viability at 72 h, 10 µM strictly lower than 90%.
1 (yes)

Determine if COc1ccc2[nH]c3c4c(c(C)cc3c2c1)OC(C)(C)C=C4 shows viability at 72 h, 10 µM strictly lower than 90%.
1 (yes)

Determine if COc1cccc2c1[nH]c1c3c(c(C)cc12)OC(C)(CCC=C(C)C)C=C3 (stereo not given) shows viability at 72 h, 10 µM strictly lower than 90%.
1 (yes)

Determine if CC(C)=CCCC1(C)C=Cc2c(ccc3c2[nH]c2ccc(C)cc23)O1 (stereo not given) shows viability at 72 h, 10 µM strictly lower than 90%.
0 (no)

Determine if Oc1cccc2[nH]c3ccccc3c12 shows viability at 72 h, 10 µM strictly lower than 90%.
0 (no)

Determine if COc1ccc2c(c1)[nH]c1c3c(c(C)cc12)O[C@](C)(CCC=C(C)C)C=C3 shows viability at 72 h, 10 µM strictly lower than 90%.
0 (no)

Determine if CC(C)=CCCC1(C)C=Cc2c(c(C)cc3c2[nH]c2ccccc23)O1 (stereo not given) shows viability at 72 h, 10 µM strictly lower than 90%.
1 (yes)

Determine if COc1ccc2c([nH]c3cc(O)c(C)cc32)c1C/C=C(\C)CCC=C(C)C shows viability at 72 h, 10 µM strictly lower than 90%.
1 (yes)

###

- tgt: Tyrosinase (Agaricus bisporus) (UniProt O42713)
- Sequence (O42713 whole entry): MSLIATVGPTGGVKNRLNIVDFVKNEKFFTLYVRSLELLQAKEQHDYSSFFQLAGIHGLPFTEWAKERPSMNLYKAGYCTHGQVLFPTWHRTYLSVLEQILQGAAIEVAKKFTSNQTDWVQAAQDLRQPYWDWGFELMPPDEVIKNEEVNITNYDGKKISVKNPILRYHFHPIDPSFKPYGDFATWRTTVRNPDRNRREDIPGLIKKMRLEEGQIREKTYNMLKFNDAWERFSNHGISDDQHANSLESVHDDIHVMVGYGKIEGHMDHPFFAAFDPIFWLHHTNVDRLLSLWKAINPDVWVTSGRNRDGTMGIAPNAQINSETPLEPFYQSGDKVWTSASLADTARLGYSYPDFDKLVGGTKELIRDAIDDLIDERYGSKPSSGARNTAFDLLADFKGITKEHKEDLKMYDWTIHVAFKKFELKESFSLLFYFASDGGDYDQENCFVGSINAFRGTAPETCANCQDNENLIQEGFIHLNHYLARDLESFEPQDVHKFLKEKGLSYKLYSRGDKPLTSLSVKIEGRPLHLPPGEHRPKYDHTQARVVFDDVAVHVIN
- assayInfo: Inhibition of mushroom tyrosinase using L-DOPA as substrate after at 10 uM after 5 mins relative to control
So I've got a bunch of molecules here, and I need their inhibition values.
# unit: % | format: bare number

Using the record for CC(C)=CCC/C(C)=C/Cc1c(O)ccc2[nH]c3ccc(C)cc3c12 [EUSTIFOLINE C] , state its measured inhibition.
2.3

Using the record for Oc1cccc2[nH]c3ccccc3c12 , state its measured inhibition.
0.5

Using the record for COc1ccc2[nH]c3c4c(c(C)cc3c2c1)OC(C)(C)C=C4 [KOENIMBINE] , state its measured inhibition.
-0.1

Using the record for CC(C)=CCCC1(C)C=Cc2c(ccc3c2[nH]c2ccc(C)cc23)O1 (stereo not given) , state its measured inhibition.
-1.1

Using the record for COc1ccc2c([nH]c3cc(O)c(C)cc32)c1C/C=C(\C)CCC=C(C)C [EUCHRESTINE B] , state its measured inhibition.
-4.3

Using the record for COc1cccc2c1[nH]c1c3c(c(C)cc12)OC(C)(CCC=C(C)C)C=C3 (stereo not given) , state its measured inhibition.
-2.8

Using the record for CC(C)=CCCC1(C)C=Cc2c(c(C)cc3c2[nH]c2ccccc23)O1 (stereo not given) [MAHANIMBINE] , state its measured inhibition.
-0.4

Using the record for Cc1cc2c3ccc(O)cc3n3c2c2c1O[C@@]1(C)CC[C@H]([C@H]2C1)C3(C)C (relative stereo) , state its measured inhibition.
3.5

Using the record for COc1ccc2c(c1)[nH]c1c3c(c(C)cc12)O[C@](C)(CCC=C(C)C)C=C3 , state its measured inhibition.
0.1

Using the record for c1ccc2c(c1)[nH]c1ccccc12 [CARBAZOLE] , state its measured inhibition.
-2.2
